# System under test: human cMET (human, UniProt P08581 25-932)
# Sequence (P08581 25-932 limits assumed): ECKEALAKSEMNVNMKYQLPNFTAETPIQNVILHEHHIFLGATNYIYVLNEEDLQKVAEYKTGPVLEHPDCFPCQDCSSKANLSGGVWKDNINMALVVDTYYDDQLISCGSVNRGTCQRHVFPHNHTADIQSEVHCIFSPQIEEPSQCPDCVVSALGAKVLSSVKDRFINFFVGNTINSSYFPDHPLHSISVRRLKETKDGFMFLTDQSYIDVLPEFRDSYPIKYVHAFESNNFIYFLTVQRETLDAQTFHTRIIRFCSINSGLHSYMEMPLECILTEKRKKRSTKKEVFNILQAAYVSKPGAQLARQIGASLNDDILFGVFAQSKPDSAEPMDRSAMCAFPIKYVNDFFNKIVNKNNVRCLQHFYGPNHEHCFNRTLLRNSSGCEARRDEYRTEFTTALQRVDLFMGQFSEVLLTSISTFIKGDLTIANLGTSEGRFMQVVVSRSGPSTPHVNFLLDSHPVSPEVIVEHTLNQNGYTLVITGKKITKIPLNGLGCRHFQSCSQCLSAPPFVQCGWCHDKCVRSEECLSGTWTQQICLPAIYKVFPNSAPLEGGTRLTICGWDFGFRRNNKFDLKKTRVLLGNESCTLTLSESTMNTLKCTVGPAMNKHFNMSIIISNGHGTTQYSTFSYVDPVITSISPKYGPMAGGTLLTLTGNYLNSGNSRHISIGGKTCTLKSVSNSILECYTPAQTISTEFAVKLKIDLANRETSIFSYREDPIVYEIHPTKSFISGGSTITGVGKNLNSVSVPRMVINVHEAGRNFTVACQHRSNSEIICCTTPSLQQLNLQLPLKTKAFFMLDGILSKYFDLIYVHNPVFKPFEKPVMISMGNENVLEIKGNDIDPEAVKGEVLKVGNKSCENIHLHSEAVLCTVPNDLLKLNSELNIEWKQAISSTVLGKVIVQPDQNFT
# Assay info: phage TRF on cMET
Measurement type: TRF signal

In: Tell us which TRF signal value is on record for KB_A12_cMET_G06 (scFv, V domains shown) VH: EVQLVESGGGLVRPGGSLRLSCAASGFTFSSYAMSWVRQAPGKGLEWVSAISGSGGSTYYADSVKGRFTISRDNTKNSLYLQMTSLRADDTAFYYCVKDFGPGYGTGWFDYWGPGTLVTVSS VL: AVNWYQQLPGKAPKLLIYAAGRCNKSGGTGRCKQDSDCLAGCVCGPNGFCGANSGVSDRFSAAKSGTSASLAINGLRSEDEADYYCAAWDDSLNGYVFGTGTKLTVLG
Out: 62100

More entries:
In: Assign TRF signal to the following record: KB_A12_cMET_G01 (scFv, V domains shown) VH: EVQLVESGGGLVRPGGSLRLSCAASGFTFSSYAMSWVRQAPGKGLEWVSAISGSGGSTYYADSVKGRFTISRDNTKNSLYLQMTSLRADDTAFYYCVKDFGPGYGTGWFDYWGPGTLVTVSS VL: AVNWYQQLPGKAPKLLIYAAGRCQRQSGTGRCKQDSDCLAGCVCGPNGFCGANSGVSDRFSAAKSGTSASLAINGLRSEDEADYYCAAWDDSLNGYVFGTGTKLTVLG
Out: 98900
